Parameter growth inhibition: see the listing below.
experiment: NCI Yeast Anticancer Drug Screen. Data for the mlh1 strain (AID 171);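 further: 0% = growth of vehicle-treated control cultures of the same strain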; settings: S. cerevisiae mlh1 strain growth inhibition; at 3.7 µM; hits give high values
About 79,000 compounds went through this panel and 15% of them were active in at least one assay; those are over-represented in the sample as a whole.
Provide only the numeric value, understood in %.

// solved cases for growth inhibition follow
1. O=C(/C=C/c1ccsc1)c1cccs1 ... 3
2. CN(C)CCNCCCNc1c2ccccc2nc2cccc([N+](=O)[O-])c12 ... 18
3. Nc1cc2ccccc2cc1N ... -22
4. CC/C(=C(\c1ccccc1)c1ccc(OCC[N+](C)(C)C)cc1)c1ccccc1 ... 70
5. BrC1C2CCC3OC3C12 (stereo not drawn) ... 4
6. Nc1cc2c(cc1N)-c1ccccc1C2=O ... -2

Would you mind telling me what growth inhibition value was observed for CC(C)C(=O)CC(Sc1ccc(N)cc1)c1ccccc1 (stereo not drawn) ? -2

For the molecule O=C(O)CNC(c1ccccc1)(c1ccccc1)c1ccccc1 , what growth inhibition is on record? -29

Name the recorded growth inhibition for Cc1ccccc1NC(=O)c1c(C)oc2c1C(=O)c1ccccc1C2=O . -8

Report growth inhibition for C/C(=N/NC(=S)Nc1ccccc1C)c1ccccn1 please. -7

Entry CCCN=Cc1cc(Cc2ccc(O)c(C=NCCC)c2)ccc1O : reported growth inhibition = ? 96

Which measured growth inhibition value corresponds to COC(=O)C1=C(C(=O)OC)CC(n2nnc(C(=O)OC)c2C(=O)OC)=CC1 ? -2

Could you tell me which growth inhibition is on file for CC1C(c2ccccc2)SC(=N)N1C (stereo not drawn) ? -2
